# Assay Overview: chemical genetic growth profiling, strain panel (AID 1159580);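 also: tested at 20 µM; growth read once vehicle control cultures reached saturation at 30 °C; 1 = growth at the plate median or of vehicle wells; lower values mean less growth of the strain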
# Condition: S. cerevisiae deletion strains, growth OD, locus YLR268W, strain sec22, stronger effect = lower value
About 2,000 (36%) of roughly 5,500 compounds were called active. Inconclusive results (about 18%) are left out. The list shows a part of the results.
Observable: normalized growth
Keep the answer to the number alone.

Tell me its normalized growth given COc1cc2cccc(OC)c(=O)c2c(OC)c1OC as the entry.
0.99

Tell me its normalized growth given CN1C(=O)CC[C@H]1c1cccnc1 as the entry.
1.03

Tell me its normalized growth given O=C1NS(=O)(=O)c2ccccc21 as the entry.
0.978

Tell me its normalized growth given CCCC(=O)Nc1ccc(OCC(O)CNC(C)C)c(C(C)=O)c1 (stereo unspecified) as the entry.
1.05

Tell me its normalized growth given CC(=O)OCC1=C(C(=O)O)N2C(=O)[C@@H](NC(=O)CSc3ccncc3)[C@H]2SC1 as the entry.
0.957

Tell me its normalized growth given Cc1cc(O)c2c(c1)C(=O)c1cccc(O)c1C2=O as the entry.
0.933

Tell me its normalized growth given C=C[C@H]1CN2CC[C@H]1C[C@H]2[C@H](O)c1ccnc2ccccc12 as the entry.
0.981

Tell me its normalized growth given CC(C)c1cc2c(c(O)c1O)[C@@]1(C(=O)O)CCCC(C)(C)C1CC2 (stereo partly specified) as the entry.
0.901
